Assay: qHTS assay to identify aromatase inhibitors - cell viability counter screen (AID 743084);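 also: cells stimulated with testosterone during compound exposure; nearly all actives have a fitted effect of over 55% in size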
Settings: MCF-7 aro ERE viability, CellTiter-Fluor, 24 h; series mostly up to 70.3 µM
Records with an inconclusive call do not appear. Active and inactive are the calls of the source. Calls follow the shape of the dose curve; as a rule, active = well fitted cell-killing curve with a large enough effect in the repeat runs; inconclusive = weak or mixed curves, or effect the other way; inactive = no such curve, though single readings can be large or run the other way.
experimentalEndpoint: outcome

[
  {
    "compound": "CN[C@@H]1[C@@H](O)[C@@H](O[C@@H]2[C@@H](O)[C@H](OC3OC(CN)=CCC3N)[C@@H](N)C[C@H]2N)OC[C@]1(C)O (some centres not stated)",
    "assayValue": "inactive"
  },
  {
    "compound": "COc1ccc(CCNC[C@H](O)c2ccc(O)cc2)cc1OC",
    "assayValue": "inactive"
  },
  {
    "compound": "O=C1NC(=O)[C@H]2[C@@H]1[C@@H]1C=C[C@H]2C1",
    "assayValue": "inactive"
  },
  {
    "compound": "CCC(=O)OCC(=O)[C@@]1(OC(=O)CC)[C@H](C)C[C@H]2[C@@H]3CCC4=CC(=O)C=C[C@]4(C)[C@@]3(F)[C@@H](O)C[C@@]21C",
    "assayValue": "inactive"
  },
  {
    "compound": "CC(=O)Nc1c(I)c(C(=O)N[C@H]2C(O)O[C@H](CO)[C@@H](O)[C@@H]2O)c(I)c(N(C)C(C)=O)c1I (some centres not stated)",
    "assayValue": "inactive"
  },
  {
    "compound": "COc1cc(C[C@@H]2NCCc3cc(O)c(O)cc32)cc(OC)c1OC",
    "assayValue": "inactive"
  },
  {
    "compound": "CO[C@@H]1[C@@H](O[C@@H]2O[C@H](C)[C@@H](O[C@H]3C[C@@](C)(O)[C@@H](OC(=O)CC(C)C)[C@H](C)O3)[C@H](N(C)C)[C@H]2O)[C@@H](CC=O)C[C@@H](C)[C@@H](O)/C=C/C=C/C[C@@H](C)OC(=O)C[C@H]1O",
    "assayValue": "inactive"
  }
]
